Test system: NCI/ADR-RES ovarian
Assay: NCI-60 one-dose screen, 48 h
Settings: 10 µM unless noted
Compounds without any hit were thinned out: in the full panel of roughly 83,000, 20% have a hit. The source made the active and inactive calls. How the source made its calls: active means growth percent below 10; inactive means the rest.
Your reply should match one of these outcome classes. yes (1) = active, no (0) = inactive

smiles_text=O=C1NC(=Nc2ccc(O)cc2)S/C1=C\c1cccc(Cl)c1 label_class="no (0)"
smiles_text=COC(=O)[C@]12CCC(C)(C)C[C@H]1[C@H]1C(=O)C[C@@H]3[C@@]4(C)c5c([nH]c6ccccc6c5=O)C(C)(C)[C@@H]4CC[C@@]3(C)[C@]1(C)CC2 label_class="no (0)"
smiles_text=COc1cc(/C=C/c2cc(O)c3cc(C(C)=O)c(=O)oc3c2)cc2c1O[C@]1(C)CC[C@@H](O)C(C)(C)[C@H]1C2 label_class="no (0)"
smiles_text=Cc1cc(C)nc(SC2=C(Nc3ccc(C)c(Cl)c3)C(=O)N(Cc3ccccc3)C2=O)n1 label_class="no (0)"
smiles_text=Cn1cc(C(=O)c2nc(-c3c[nH]c4ccc(Br)cc34)no2)c2cc(F)ccc21 label_class="no (0)"

Please let me know the test result on file for `Cc1ncc(C(=O)Nc2ccc(CN3CCN(C)CC3)c(C(F)(F)F)c2)cc1C#Cc1cnc2cccnn12` .
yes (1)
